Target: PB2 (Influenza A virus, UniProt P03428)
Sequence (P03428 whole entry, looked up): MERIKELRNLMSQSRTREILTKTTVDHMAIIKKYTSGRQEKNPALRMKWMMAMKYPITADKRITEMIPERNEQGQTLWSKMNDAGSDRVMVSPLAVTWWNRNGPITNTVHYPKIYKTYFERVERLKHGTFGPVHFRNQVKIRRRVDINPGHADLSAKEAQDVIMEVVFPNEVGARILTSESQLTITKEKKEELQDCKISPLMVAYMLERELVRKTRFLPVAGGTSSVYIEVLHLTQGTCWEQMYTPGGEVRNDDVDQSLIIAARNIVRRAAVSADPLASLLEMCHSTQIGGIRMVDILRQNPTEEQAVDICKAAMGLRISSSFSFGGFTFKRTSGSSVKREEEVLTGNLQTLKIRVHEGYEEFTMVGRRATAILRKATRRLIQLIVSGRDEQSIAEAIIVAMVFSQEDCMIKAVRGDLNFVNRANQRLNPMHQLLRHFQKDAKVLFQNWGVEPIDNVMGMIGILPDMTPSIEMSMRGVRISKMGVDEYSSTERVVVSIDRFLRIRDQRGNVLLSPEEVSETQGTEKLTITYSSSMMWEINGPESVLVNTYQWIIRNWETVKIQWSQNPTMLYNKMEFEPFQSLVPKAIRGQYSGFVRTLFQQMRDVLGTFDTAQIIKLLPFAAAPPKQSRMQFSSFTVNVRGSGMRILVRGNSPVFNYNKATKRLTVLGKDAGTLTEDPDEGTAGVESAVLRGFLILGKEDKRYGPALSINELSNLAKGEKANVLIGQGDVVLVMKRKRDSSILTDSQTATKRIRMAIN
Experiment: biochemical
Exercise: state measured EC50 for each of the compounds provided.

Exercise: # input compound: CCCCOCCCCc1ccnc(C(=O)N[C@H]2CCC[C@@H](Nc3nc(-c4c[nH]c5ncc(F)cc45)ncc3F)C2)c1 [Compound A31] ; wanted: its EC50
Solution: > 100 µM

Exercise: # input compound: CCOc1ccc(C(C)NC(=O)OCc2ccnc(C(=O)N[C@H]3CCC[C@@H](Nc4nc(-c5c[nH]c6ncc(F)cc56)ncc4F)C3)c2)cc1 (stereo partly shown) [Compound A145] ; wanted: its EC50
Solution: > 100 µM

Exercise: # input compound: CCOc1ccc(-c2ccnc(C(=O)N[C@@H]3CCC[C@H](Nc4nc(-c5c[nH]c6ncc(F)cc56)ncc4F)C3)c2)cc1 [Compound A62] ; wanted: its EC50
Solution: 5 to 25 µM

Exercise: # input compound: CCOc1ccccc1CNC(=O)OCc1ccnc(C(=O)N[C@H]2CCC[C@@H](Nc3nc(-c4c[nH]c5ncc(F)cc45)ncc3F)C2)c1 [Compound A133] ; wanted: its EC50
Solution: > 100 µM

Exercise: # input compound: O=C(NCCc1cccc(Oc2ccccc2)c1)OCc1ccnc(C(=O)N[C@H]2CCC[C@@H](Nc3nc(-c4c[nH]c5ncc(F)cc45)ncc3F)C2)c1 [Compound A109] ; wanted: its EC50
Solution: > 100 µM

Exercise: # input compound: C[C@H](NC(=O)OCc1ccnc(C(=O)N[C@@H]2CCC[C@H](Nc3nc(-c4c[nH]c5ncc(F)cc45)ncc3F)C2)c1)C(=O)O [Compound A134] ; wanted: its EC50
Solution: < 5 µM

Exercise: # input compound: CCOCCOCc1cccc(-c2ccnc(C(=O)N[C@H]3CCC[C@@H](Nc4nc(-c5c[nH]c6ncc(F)cc56)ncc4F)C3)c2)c1 [Compound A90] ; wanted: its EC50
Solution: 50 to 100 µM

Exercise: # input compound: COC(=O)N[C@H]1CCC[C@@H](Nc2nc(-c3c[nH]c4ncc(F)cc34)ncc2F)C1 [Compound A286] ; wanted: its EC50
Solution: 25 to 50 µM

Exercise: # input compound: CCOc1ccc(CNC(=O)OC(C)c2ccnc(C(=O)N[C@H]3CCC[C@@H](Nc4nc(-c5c[nH]c6ncc(F)cc56)ncc4F)C3)c2)cc1 (stereo partly shown) [Compound A139] ; wanted: its EC50
Solution: > 100 µM

Exercise: # input compound: O=C(NCc1cccc(F)c1)OCc1ccnc(C(=O)N[C@H]2CCC[C@@H](Nc3nc(-c4c[nH]c5ncc(F)cc45)ncc3F)C2)c1 [Compound A125] ; wanted: its EC50
Solution: > 100 µM

Exercise: # input compound: NCCOCCOCCOCCNC(=O)N[C@@H]1CCC[C@H](Nc2nc(-c3c[nH]c4ncc(F)cc34)ncc2F)C1 [Compound A170] ; wanted: its EC50
Solution: > 100 µM

Exercise: # input compound: O=C(N[C@@H]1CCC[C@H](Nc2nc(-c3c[nH]c4ncc(F)cc34)ncc2F)C1)c1cc(CCCOCCOCc2ccc(F)cc2)ccn1 [Compound A36] ; wanted: its EC50
Solution: > 100 µM

Exercise: # input compound: CCCCCOCCCCCN(C)C(=O)N[C@@H]1CCC[C@H](Nc2nc(-c3c[nH]c4ncc(F)cc34)ncc2F)C1 [Compound A201] ; wanted: its EC50
Solution: > 100 µM
